This collection of values is drawn from the supplement of paper PMC7877785.

# protocol: self-splicing fitness, log relative to wild type (ln ratio); higher = more splicing; Tetrahymena group I intron in knt gene, E. coli kanamycin selection, DiMSum; sequences stand for … in CUCUCU…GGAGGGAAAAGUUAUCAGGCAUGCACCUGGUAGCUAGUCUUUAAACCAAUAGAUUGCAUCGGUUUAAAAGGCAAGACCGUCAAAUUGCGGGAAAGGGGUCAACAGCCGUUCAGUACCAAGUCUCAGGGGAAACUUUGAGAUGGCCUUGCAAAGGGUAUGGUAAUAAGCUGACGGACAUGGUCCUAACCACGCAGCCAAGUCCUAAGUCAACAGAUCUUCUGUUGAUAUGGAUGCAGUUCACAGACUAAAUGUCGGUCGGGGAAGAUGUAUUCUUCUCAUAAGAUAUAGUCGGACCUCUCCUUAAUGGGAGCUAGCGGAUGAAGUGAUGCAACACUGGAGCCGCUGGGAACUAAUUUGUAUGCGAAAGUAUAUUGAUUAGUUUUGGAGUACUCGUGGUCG;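 further: selection with 25 µg/mL kanamycin versus none on LB agar overnight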
# experimental.parameters: 30 °C
Please provide measured self-splicing fitness (ln) for the entries that follow.
Answers are plain numbers.

Some sequences with recorded self-splicing fitness (ln):
CGUAAGCAAUAUUACGUAGA: -4.43
ACCAAGCAAUAUUACGUUCU: -1.56
AAUGAGCAAUAUUACGUACU: -0.657
GAUUAGCAAUAUUACGCUAG: -1.95
CGACAGCAAUAUUACGGCUA: -2.5
UACUAGCAAUAUUACGUUGG: -2.61
AUUGAGCAAUAUUACGAUUA: -2.36
ACACAGCAAUAUUACGAAUG: -2.63
UUUAAGCAAUAUUACGCUAG: -1.54
GAUCAGCAAUAUUACGGUAU: -0.247

I'm hoping you can list self-splicing fitness (ln) for every sequence here, please.
1. CCCCAGCAAUAUUACGGUUA
2. CCAGAGCAAUAUUACGUGGC
3. UGUUAGCAAUAUUACGACUA
4. GUAAAGCAAUAUUACGAAUG
5. CUAUAGCAAUAUUACGACCA
6. UGUGAGCAAUAUUACGUUCU
7. CGCUAGCAAUAUUACGAUUG
8. ACUAAGCAAUAUUACGAGGU

1: -3.5; 2: -1.95; 3: 0.407; 4: -2.8; 5: -3.1; 6: -3.79; 7: -1.18; 8: -3
